# Tested on: E. coli NHIJ JC-2
# EXPERIMENT SUMMARY: Minimum inhibitory concentration (MIC) by agar dilution method
# Type: cell-based
# TEST SETTINGS: Escherichia coli, NHIJJC2, read-out: MIC (μg/ml) 10^6 CFU/ml E. coli NHIJ JC-2
Documented MIC across a set of compounds

COMPOUND | MIC
C[C@@H](O)[C@H]1C(=O)N2C(C(=O)[O-])=C(SCCc3cn4ccccc4n3)[C@H](C)[C@H]12.[Na+] [Working Example 18-2] | 0.2 µg/mL

-- ask Retrieve MIC measured for C[C@@H](O)[C@H]1C(=O)N2C(C(=O)[O-])=C(SCCc3cn4c(NC(N)=O)cccc4n3)[C@H](C)[C@H]12.[Na+] [Working Example 33-2] and print it.
-- reply 0.2 µg/mL

-- ask Give the value of MIC reported for the following: C[C@@H](O)[C@H]1C(=O)N2C(C(=O)[O-])=C(SCCc3cn4cccnc4n3)[C@H](C)[C@H]12.[Na+] [Working Example 32-2]
-- reply 0.2 µg/mL

-- ask Specify reported MIC for the compound shown: C[C@@H](O)[C@H]1C(=O)N2C(C(=O)[O-])=C(SCCc3cc[nH]n3)[C@H](C)[C@H]12.[Na+] [Working Example 3-3]
-- reply 0.1 µg/mL
